Reported Reader value (lateral flow, CF1522 gold) at 0.5 µg/ml MMP by item:
target.under.test: Indicator molecule containing the cleavable sequence GPQGIFGQ with a terminal biotin group connected via a polyethylene glycol spacer/linker (intact)
Dear colleague, please return just the value in reader units, with no unit written.

Record excerpt, results attached:
query: Return Reader value (lateral flow, CF1522 gold) at 0.5 µg/ml MMP (reported value) for this protein: MMP 7 (Enzo) (protein) YSLFPNSPKWTSKVVTYRIVSYTRDLPHITVDRLVSKALNMWGKEIPLHFRKVVWGTADIMIGFARGAHGDSYPFDGPGNTLAHAFAPGTGLGGDAHFDEDERWTDGSSLGINFLYAATHELGHSLGMGHSSDPNAVMYPTYGNGDPQNFKLSQDDIKGIQKLYGKRSNSRKK
result: 373

query: For the protein MMP 1 (Enzo) (protein) FVLTEGNPRWEQTHLTYRIENYTPDLPRADVDHAIEKAFQLWSNVTPLTFTKVSEGQADIMISFVRGDHRDNSPFDGPGGNLAHAFQPGPGIGGDAHFDEDERWTNNFREYNLHRVAAHELGHSLGLSHSTDIGALMYPSYTFSGDVQLAQDDIDGIQAIYGRSQNPVQP , give its reported Reader value (lateral flow, CF1522 gold) at 0.5 µg/ml MMP.
result: 478

query: Return reported Reader value (lateral flow, CF1522 gold) at 0.5 µg/ml MMP. Input protein: MMP 12 (Enzo) (protein) FREMPGGPVWRKHYITYRINNYTPDMNREDVDYAIRKAFQVWSNVTPLKFSKINTGMADILVVFARGAHGDFHAFDGKGGILAHAFGPGSGIGGDAHFDEDEFWTTHSGGTNLFLTAVHEIGHSLGLGHSSDPKAVMFPTYKYVDINTFRLSADDIRGIQSLYG
result: 1250

For the next question, use this protein.
query: Find the measured Reader value (lateral flow, CF1522 gold) at 0.5 µg/ml MMP of MMP 11 (Enzo) (protein) FVLSGGRWEKTDLTYRILRFPWQLVQEQVRQTMAEALKVWSDVTPLTFTEVHEGRADIMIDFARYWHGDDLPFDGPGGILAHAFFPKTHREGDVHFDYDETWTIGDDQGTDLLQVAAHEFGHVLGLQHTTAAKALMSAFYTFRYPLSLSPDDCRGVQHLYGQPWPTVTSRTPA and report it.
result: 280
